# System: Nucleic Acid
# Test: Binding affinity to human telomeric DNA G-quadruplex assessed as melting temperature at 0.5 uM by fluorescein-rhodamine based FRET assay
# Type: nucleic-acid assay

Structure smiles	Tm
O=C(NCCN1CCNCC1)c1c[nH]c2c(ccc3ccccc32)c1=O	52.4 °C
CN1CCN(CCNC(=O)c2c[nH]c3c(ccc4ccccc43)c2=O)CC1	54.9 °C
O=C(NCCN1CCNCC1)c1cc(=O)c2ccc3ccccc3c2[nH]1	52.5 °C
O=C(NCCN1CCCCC1)c1c[nH]c2c(ccc3ccccc32)c1=O	56.4 °C
O=C(Nc1ccccc1)c1c[nH]c2c(ccc3ccccc32)c1=O	52.3 °C
O=C(NCCN1CCCC1)c1cc(=O)c2ccc3ccccc3c2[nH]1	52.6 °C

* * *

# System: Nucleic Acid
# Test: Selectivity for synthetic oligo 22G DNA G-quadruplex over synthetic oligo 17bp DNA duplex
# Format: nucleic-acid assay

Structure smiles	Ratio
CN(C)c1ccc(NC(=O)c2c[nH]c3c(ccc4ccccc43)c2=O)cc1	0.71
O=C(NCCN1CCNCC1)c1cc(=O)c2ccc3ccccc3c2[nH]1	0.21
CN1CCN(CCNC(=O)c2c[nH]c3c(ccc4ccccc43)c2=O)CC1	0.37
O=C(NCCN1CCCC1)c1cc(=O)c2ccc3ccccc3c2[nH]1	0.55
O=C(NCCN1CCCCC1)c1c[nH]c2c(ccc3ccccc32)c1=O	10.4
O=C(Nc1ccncc1)c1cc(=O)c2ccc3ccccc3c2[nH]1	0.84
O=C(NCCN1CCNCC1)c1c[nH]c2c(ccc3ccccc32)c1=O	0.4
CN(C)c1ccc(NC(=O)c2cc(=O)c3ccc4ccccc4c3[nH]2)cc1	7.4
O=C(Nc1ccccc1)c1c[nH]c2c(ccc3ccccc32)c1=O	0.22
O=C(NCCN1CCCCC1)c1cc(=O)c2ccc3ccccc3c2[nH]1	0.05
O=C(Nc1ccncc1)c1c[nH]c2c(ccc3ccccc32)c1=O	0.51
O=C(NCCN1CCCC1)c1c[nH]c2c(ccc3ccccc32)c1=O	2.5

* * *

# Tested on: Nucleic Acid
# Test: Displacement of thiazole orange from synthetic oligo 22G DNA G-quadruplex by fluorescence displacement assay
# Assay type: nucleic-acid assay
Think of 0.3 ×10⁵ /M as a floor: if K stands on it or above, it is criterion met; beneath it, criterion not met.

Structure smiles	Group label
O=C(NCCN1CCCC1)c1c[nH]c2c(ccc3ccccc32)c1=O	criterion met
O=C(NCCN1CCCCC1)c1cc(=O)c2ccc3ccccc3c2[nH]1	criterion not met
CN(C)c1ccc(NC(=O)c2c[nH]c3c(ccc4ccccc43)c2=O)cc1	criterion met
O=C(Nc1ccccc1)c1c[nH]c2c(ccc3ccccc32)c1=O	criterion met
CN1CCN(CCNC(=O)c2c[nH]c3c(ccc4ccccc43)c2=O)CC1	criterion not met
O=C(Nc1ccncc1)c1cc(=O)c2ccc3ccccc3c2[nH]1	criterion met
CN(C)c1ccc(NC(=O)c2cc(=O)c3ccc4ccccc4c3[nH]2)cc1	criterion met
O=C(NCCN1CCNCC1)c1cc(=O)c2ccc3ccccc3c2[nH]1	criterion met
O=C(NCCN1CCCCC1)c1c[nH]c2c(ccc3ccccc32)c1=O	criterion met
O=C(Nc1ccncc1)c1c[nH]c2c(ccc3ccccc32)c1=O	criterion met
O=C(NCCN1CCCC1)c1cc(=O)c2ccc3ccccc3c2[nH]1	criterion not met

* * *

# Test system: Nucleic Acid
# Test: Binding affinity to human telomeric DNA G-quadruplex assessed as melting temperature at 0.5 uM by fluorescein-rhodamine based FRET assay
# Type: nucleic-acid assay

Structure smiles	System name	Tm [°C]
O=C(Nc1ccncc1)c1cc(=O)c2ccc3ccccc3c2[nH]1	Nucleic Acid	51.9
CN(C)c1ccc(NC(=O)c2cc(=O)c3ccc4ccccc4c3[nH]2)cc1	Nucleic Acid	51.6
O=C(NCCN1CCCC1)c1c[nH]c2c(ccc3ccccc32)c1=O	Nucleic Acid	56
CN(C)c1ccc(NC(=O)c2c[nH]c3c(ccc4ccccc43)c2=O)cc1	Nucleic Acid	51.4
O=C(NCCN1CCCCC1)c1cc(=O)c2ccc3ccccc3c2[nH]1	Nucleic Acid	52.2
O=C(Nc1ccncc1)c1c[nH]c2c(ccc3ccccc32)c1=O	Nucleic Acid	56.5
